These records show IC50 for MET (Homo sapiens).
Reported endpoint: IC50

- Smi: "CCOc1ccnc(F)c1C(=O)Nc1cc(F)c(Oc2ccnc3cc(OCCCNC)c(OC)cc23)c(F)c1"
  Tested system: "MET (Homo sapiens)"
  Reported endpoint: "IC50"
  Endpoint result: "≤ 100 nM"
- Smi: "COc1cc2c(Oc3c(F)cc(NC(=O)c4cnccc4OC)cc3F)ccnc2cc1OCCO"
  Tested system: "MET (Homo sapiens)"
  Reported endpoint: "IC50"
  Endpoint result: "≤ 100 nM"
- Smi: "CNCCOc1ccc2c(Oc3c(F)cc(NC(=O)c4ccncc4OC4CC4)cc3F)ccnc2c1"
  Tested system: "MET (Homo sapiens)"
  Reported endpoint: "IC50"
  Endpoint result: "≤ 100 nM"
- Smi: "CNCCOc1cc2nccc(Oc3c(F)cc(NC(=O)c4cnccc4OC[C@H](C)F)cc3F)c2cc1OC"
  Tested system: "MET (Homo sapiens)"
  Reported endpoint: "IC50"
  Endpoint result: "≤ 100 nM"
- Smi: "COc1ccncc1C(=O)Nc1cc(F)c(Oc2ccnc3cc(OCCO)c(OC)nc23)c(F)c1"
  Tested system: "MET (Homo sapiens)"
  Reported endpoint: "IC50"
  Endpoint result: "≤ 100 nM"
- Smi: "COc1cc2c(Oc3c(F)cc(NC(=O)c4cnccc4OCC(F)F)cc3F)ccnc2cc1OCCO"
  Tested system: "MET (Homo sapiens)"
  Reported endpoint: "IC50"
  Endpoint result: "≤ 100 nM"
- Smi: "COc1cc2c(Oc3c(F)cc(NC(=O)c4c(OC5CC5)ccnc4F)cc3F)ccnc2cc1OCCO"
  Tested system: "MET (Homo sapiens)"
  Reported endpoint: "IC50"
  Endpoint result: "≤ 100 nM"
- Smi: "CNCCOc1cc2nccc(Oc3c(F)cc(NC(=O)c4cnc(C)cc4OC4CC4)cc3F)c2cc1OC"
  Tested system: "MET (Homo sapiens)"
  Reported endpoint: "IC50"
  Endpoint result: "≤ 100 nM"
- Smi: "COc1cc2c(Oc3c(F)cc(NC(=O)c4cnccc4OC)cc3F)ccnc2cc1OCC(C)(C)O"
  Tested system: "MET (Homo sapiens)"
  Reported endpoint: "IC50"
  Endpoint result: "≤ 100 nM"
- Smi: "CNCCOc1cc2nccc(Oc3c(F)cc(NC(=O)c4cnc(Cl)cc4OC)cc3F)c2cc1OC"
  Tested system: "MET (Homo sapiens)"
  Reported endpoint: "IC50"
  Endpoint result: "≤ 100 nM"
- Smi: "COCCOc1cc2nccc(Oc3c(F)cc(NC(=O)c4cnccc4OC4CC4)cc3F)c2nc1OC"
  Tested system: "MET (Homo sapiens)"
  Reported endpoint: "IC50"
  Endpoint result: "≤ 100 nM"
- Smi: "COc1ccc2c(Oc3c(F)cc(NC(=O)c4cnccc4OC)cc3F)ccnc2c1"
  Tested system: "MET (Homo sapiens)"
  Reported endpoint: "IC50"
  Endpoint result: "≤ 100 nM"
- Smi: "CC(C)(CO)Oc1ccc2c(Oc3c(F)cc(NC(=O)c4cnccc4OC4CC4)cc3F)ccnc2c1"
  Tested system: "MET (Homo sapiens)"
  Reported endpoint: "IC50"
  Endpoint result: "≤ 100 nM"
- Smi: "COc1cc2c(Oc3c(F)cc(NC(=O)c4cnccc4OC4CC4)cc3F)ccnc2cc1OCCCN1CCOCC1"
  Tested system: "MET (Homo sapiens)"
  Reported endpoint: "IC50"
  Endpoint result: "≤ 100 nM"
- Smi: "CCOc1ccncc1C(=O)Nc1ccc(Oc2ccnc3cc(OCCCNC)c(OC)cc23)c(F)c1F"
  Tested system: "MET (Homo sapiens)"
  Reported endpoint: "IC50"
  Endpoint result: "≤ 100 nM"
- Smi: "CNCCOc1ccc2c(Oc3c(F)cc(NC(=O)c4c(OC)ccnc4F)cc3F)ccnc2c1"
  Tested system: "MET (Homo sapiens)"
  Reported endpoint: "IC50"
  Endpoint result: "≤ 100 nM"
